Reference for the values: PubChem BioAssay (NCI)

Test system: KM12 colon
Test: NCI-60 one-dose screen, 48 h
Details: 10 µM unless noted
Compounds without any hit were thinned out: in the full panel of roughly 83,000, 20% have a hit. The source made the active and inactive calls. Rule for the calls: active = growth percent below 10; inactive = the rest.
Outcomes: 1 = active, 0 = inactive

>>> class("COC(=O)[C@H]1CCCN1C[C@@H](O)CN1C(=O)/C(=C\\c2cc(OC)c(OC)c(OC)c2)c2ccccc21")
0
>>> class("CCCCCCC1(C)NCCO1 (stereo not given)")
0
>>> class("N#C/C(=C/c1ccc([N+](=O)[O-])cc1)n1nnc2cc(F)c(F)cc21")
0
>>> class("CCOC(=O)CNP(=O)(OC[C@@H](Cc1ccccc1)NC(=O)c1cc2ccccc2s1)Oc1ccccc1 (stereo not given in full)")
0
>>> class("O=C(Nn1c2c(sc1=Nc1ccccc1)C(=O)c1ccccc1C2=O)c1cc2ccc1CCc1ccc(cc1)CC2")
0
>>> class("CC12CCC3c4ccccc4CCC3(CO1)C2 (stereo not given)")
0
>>> class("COc1ccc(/C(C)=C(/c2ccc(OCCCN(C)C)cc2)c2ccc(OC(=O)Cc3ccccc3)cc2)cc1")
0
>>> class("O=C1/C(=C/c2ccc(F)cc2)COc2ccc(O)c(O)c21")
1
>>> class("COc1ccc2cc(C(=O)c3coc4ccc(O)cc34)ccc2c1")
0
>>> class("O=C1Nc2ccc(Br)cc2/C1=N/c1n[nH]c(=S)s1")
0

----------
Test system: HS 578T breast
Assay: NCI-60 one-dose screen, 48 h
Settings: 10 µM unless noted
This is part of a sample that, as a whole, favours compounds with a hit. Of some 83,000 tested, about 20% had one in any assay. Calls of active or inactive are those of the source. How the source made its calls: active means growth percent below 10; inactive means the rest.
Outcome codes: true = active, false = inactive

>>> class("COc1ccc2c(O)c(/C=C3\\N=Nc4ncccc43)oc2c1C[C@H]1CCNC[C@H]1F")
"true"
>>> class("Fc1cc(F)cc(C(c2c[nH]c3ccccc23)c2c[nH]c3ccccc23)c1")
"false"
>>> class("COC(=O)/C(CCC=C(C)C)=C1\\[C@@H](OC(C)=O)C[C@@]2(C)[C@H]1C[C@@H](O)[C@H]1[C@@]3(C)CC[C@H](NCCN)[C@@H](C)[C@@H]3CC[C@@]12C")
"false"
>>> class("N#Cc1cccc(-c2c(-c3ccc4ccccc4c3)oc3ccccc3c2=O)c1")
"false"

----------
Tested on: MDA-MB-231 breast
Assay: NCI-60 one-dose screen, 48 h
Conditions: 10 µM unless noted
Compounds without any hit were thinned out: in the full panel of roughly 83,000, 20% have a hit. Activity calls are given as the source filed them. The calls were made as follows: active = growth percent below 10; inactive = the rest.
Outcome codes: yes (1) (active), no (0) (inactive)

>>> class("Clc1ccc(CNc2c3ccccc3nc3ccccc23)cc1")
"no (0)"
>>> class("O=C1N[C@@H]2NC(=[N+]3CCOCC3)N[C@@H]2N1")
"no (0)"
>>> class("CN(C)c1ccc(Nc2cc(-c3cccc(OC(F)(F)F)c3)nc3ccc(N4CCCC4)cc23)cc1")
"no (0)"
>>> class("CCc1nc2c(=O)[nH]cnc2o1")
"no (0)"
>>> class("C1=CN2CC(c3ccccc3)=NNC2c2ccccc21 (centres undefined)")
"no (0)"
>>> class("O=C(/C=C/c1ccccc1)c1cccc(OCCCOc2cccc(C(=O)/C=C/c3ccccc3)c2)c1")
"no (0)"
>>> class("Oc1c(Cl)cc(Cl)c2ccc(Cn3cc(-c4ccc(C(F)(F)F)cc4)nn3)nc12")
"no (0)"
>>> class("COC(=O)[C@H]1CCCN1C[C@@H](O)CN1C(=O)/C(=C\\c2cc(OC)c(OC)c(OC)c2)c2ccccc21")
"no (0)"
>>> class("CC[C@@H](C(=O)[C@@H](C)[C@@H](O)[C@H](C)[C@@H]1O[C@@H]([C@@H](CC)C(=O)NCCc2ccc(F)cc2)CC[C@@H]1C)C1O[C@]2(C=CC(=O)[C@]3(CC[C@@](C)([C@H]4CC[C@](O)(CC)[C@H](C)O4)O3)O2)[C@H](C)C[C@@H]1C (some centres undefined)")
"no (0)"
>>> class("COc1cc2c(c(OC)c1OC)C(=O)CC(c1cccc(NC(=O)c3ccc(Br)cc3)c1)O2 (centres undefined)")
"no (0)"
>>> class("O=C(CSc1nc2ccc([N+](=O)[O-])cc2[nH]1)Nc1ccc(F)cc1")
"no (0)"
>>> class("Cc1cccc(N2CCN(CC(O)COc3ccc(Cl)cc3)CC2)c1 (centres undefined)")
"no (0)"
>>> class("O=c1oc2c(cnc3ccccc32)cc1-c1ccsc1")
"no (0)"
>>> class("CCNc1nc(-c2ccc(Cl)c(OC)c2)c(-c2ccnc(NCCCNS(=O)(=O)c3ccc(Cl)cc3)n2)s1")
"no (0)"
>>> class("CCn1c(=S)sc2c(Nc3ccc(F)cc3)nc(-c3cccnc3)nc21")
"no (0)"
>>> class("CCN(CC)CCSc1nc(-c2ccccc2)c(C#N)c(=O)[nH]1")
"no (0)"
>>> class("CC1=C(Nc2ccc(N3CCN(C)CC3)cc2)C(=O)c2cncnc2C1=O")
"yes (1)"
>>> class("COC(=O)c1n[nH]c2ccc3nc(-c4cn[nH]c4C(F)(F)F)c4c(c3c12)CCCC4")
"no (0)"
>>> class("COc1ccc(OC)c(C(=O)/C=C/c2cc3c(c(OC)c2OC)OCO3)c1")
"no (0)"
>>> class("CN1CCN(C(=O)OCc2ccc3c(Cl)cc(Cl)c(O)c3n2)CC1")
"no (0)"
>>> class("COc1ccc(CC(C#N)c2cc3ccccc3[nH]2)cc1 (centres undefined)")
"no (0)"
>>> class("O=C1C(Cl)=C(Oc2ccccc2)C(=O)c2ccccc21")
"no (0)"
>>> class("C=CC(=O)NCc1ccc(Nc2nccc(-c3ccc(N4CCCC4)c(C#N)c3)n2)cc1")
"no (0)"
>>> class("Cn1cc(-c2nc(-c3c[nH]c4ccncc34)cs2)c2ccccc21")
"no (0)"
>>> class("CC1(c2ccccc2O)NN=C(/N=C/c2cccc([N+](=O)[O-])c2)N1C(Cc1c[nH]c2ccccc12)C(=O)O (centres undefined)")
"no (0)"
>>> class("C=CCn1cc(-c2nc3ccccc3s2)c2cc(-c3ccc4c5c(cccc35)C(=O)N(N)C4=O)ccc21")
"no (0)"
>>> class("Brc1ccc2[nH]cc(-c3nonc3-c3c[nH]c4ccccc34)c2c1")
"no (0)"
>>> class("COc1cccc(NC(=O)Cn2cc(CN3CCN(c4ccnc5cc(Cl)ccc45)CC3)nn2)c1")
"no (0)"
>>> class("Oc1ccc(CCn2c(O)c(/C=C3\\CN=c4ccccc4=N3)sc2=S)cc1")
"no (0)"
>>> class("COc1ccc2c(c1)c(-c1noc(C(=O)c3cn(C)c4ccc(Br)cc34)n1)cn2C")
"no (0)"
>>> class("O=C(Nc1ccc(NC(=O)c2cc(=O)[nH]c3ccccc23)cc1)Nc1cccc(C(F)(F)F)c1")
"no (0)"
>>> class("O=C(CCc1nnc(Cn2cnc3nc[nH]c3c2=O)o1)c1nc2ncccc2[nH]1")
"no (0)"
>>> class("COc1cc(-c2csc(NC(=O)c3cc(-n4cnc(C)c4)cc(C(F)(F)F)c3)n2)cc(OC)c1OC")
"no (0)"
>>> class("C[C@]12CC[C@@H]3c4ccc(O)c([N+](=O)[O-])c4CC[C@H]3[C@@H]1CCC2=O")
"no (0)"
>>> class("Cn1cc(-c2csc(-c3ccc(Cl)cc3)n2)c2cccnc21")
"yes (1)"
>>> class("O=C1/C(=C/c2ccccc2Br)COc2ccc(O)c(O)c21")
"yes (1)"
>>> class("CS(=O)(=O)c1cccc(-c2c(-c3cccc(OS(N)(=O)=O)c3)nc3sccn23)c1")
"no (0)"
>>> class("O=C(O)CCCN1C(=O)/C(=C/C(Cl)=C/c2ccccc2)SC1=S")
"no (0)"
>>> class("CS(=O)(=O)C1=CN(CCO)C(=O)N2CCCN=C12")
"no (0)"
